Molecular target: T1, Ube2g2 (UniProt P60604 1-165)
T1 sequence: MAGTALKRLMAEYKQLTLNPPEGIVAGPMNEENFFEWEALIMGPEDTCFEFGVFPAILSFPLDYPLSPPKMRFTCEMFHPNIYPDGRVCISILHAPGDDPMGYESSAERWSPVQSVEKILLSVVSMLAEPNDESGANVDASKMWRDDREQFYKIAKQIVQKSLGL
Assay: NMR titration
Measured Quantity: Kd (µM)

[[record]]
binder = "gp78 RING finger (aa 313-380) (domain or fragment, human, UniProt Q9UKV5 313-380, looked up) KNYLRVVGNMEARFAVATPEELAVNNDDCAICWDSMQAARKLPCGHLFHNSCLRSWLEQDTSCPTCRM"
readout_units = "µM"
recorded_measurement = 144


All figures here come from paper PMC3050579.
